Where do the numbers come from? From patent US20150258192A1.

# assay_target: CaMKIIγ(h) (Homo sapiens, UniProt Q13555)
# Sequence (Q13555 whole entry): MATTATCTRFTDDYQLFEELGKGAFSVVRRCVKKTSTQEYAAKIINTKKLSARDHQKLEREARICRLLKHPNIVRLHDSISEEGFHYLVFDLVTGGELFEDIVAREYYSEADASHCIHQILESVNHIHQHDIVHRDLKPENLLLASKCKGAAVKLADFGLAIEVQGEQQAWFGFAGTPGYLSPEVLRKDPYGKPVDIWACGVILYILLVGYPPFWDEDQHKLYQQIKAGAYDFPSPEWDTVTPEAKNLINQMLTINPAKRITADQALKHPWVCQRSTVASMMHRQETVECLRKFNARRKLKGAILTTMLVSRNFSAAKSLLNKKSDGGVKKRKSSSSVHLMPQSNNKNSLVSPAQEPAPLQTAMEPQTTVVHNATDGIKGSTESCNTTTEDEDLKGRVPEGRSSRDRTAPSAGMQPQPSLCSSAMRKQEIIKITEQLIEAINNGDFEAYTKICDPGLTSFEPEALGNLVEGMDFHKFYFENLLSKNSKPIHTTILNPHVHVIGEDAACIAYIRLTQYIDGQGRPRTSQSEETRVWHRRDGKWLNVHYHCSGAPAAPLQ
# test_description: Kinase Profiling Assay
# Type: biochemical
# applied_conditions: peptide 100 μM
List of % activity values.

- record_sequence: "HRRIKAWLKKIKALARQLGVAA (Mammal) [MMI-0500]"
  assay_target: "CaMKIIγ(h) (Homo sapiens, UniProt Q13555)"
  % activity [%]: 3
- record_sequence: "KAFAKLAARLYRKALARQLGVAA [MMI-0400]"
  assay_target: "CaMKIIγ(h) (Homo sapiens, UniProt Q13555)"
  % activity [%]: 3
- record_sequence: "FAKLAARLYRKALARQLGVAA [MMI-0300]"
  assay_target: "CaMKIIγ(h) (Homo sapiens, UniProt Q13555)"
  % activity [%]: 5
- record_sequence: "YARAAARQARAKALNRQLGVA (Mammal) [MMI-0200]"
  assay_target: "CaMKIIγ(h) (Homo sapiens, UniProt Q13555)"
  % activity [%]: 94

====

List of % activity values.
# assay_target: DCAMKL2(h) (Homo sapiens)
# Sequence (Q8N568 1-766): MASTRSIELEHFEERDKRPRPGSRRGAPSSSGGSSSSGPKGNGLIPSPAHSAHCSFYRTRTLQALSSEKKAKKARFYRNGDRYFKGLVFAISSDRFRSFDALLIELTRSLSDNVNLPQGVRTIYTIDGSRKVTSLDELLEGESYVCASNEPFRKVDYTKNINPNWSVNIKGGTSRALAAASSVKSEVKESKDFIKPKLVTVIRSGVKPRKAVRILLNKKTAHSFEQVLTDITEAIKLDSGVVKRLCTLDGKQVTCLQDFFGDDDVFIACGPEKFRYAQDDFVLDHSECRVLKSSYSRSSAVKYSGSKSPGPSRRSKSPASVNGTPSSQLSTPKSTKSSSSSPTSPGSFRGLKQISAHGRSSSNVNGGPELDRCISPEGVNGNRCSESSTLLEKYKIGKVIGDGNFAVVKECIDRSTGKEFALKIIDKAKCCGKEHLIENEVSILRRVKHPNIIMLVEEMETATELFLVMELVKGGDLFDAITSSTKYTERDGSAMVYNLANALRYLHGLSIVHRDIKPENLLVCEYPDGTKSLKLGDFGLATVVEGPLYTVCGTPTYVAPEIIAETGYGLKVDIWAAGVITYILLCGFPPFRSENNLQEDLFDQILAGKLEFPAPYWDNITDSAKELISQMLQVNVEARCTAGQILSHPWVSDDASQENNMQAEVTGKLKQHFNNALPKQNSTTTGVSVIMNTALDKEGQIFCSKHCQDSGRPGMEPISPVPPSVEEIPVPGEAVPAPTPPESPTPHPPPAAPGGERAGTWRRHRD
# test_description: Kinase Profiling Assay
# Type: biochemical
# applied_conditions: peptide 100 μM
No end group written: not given here.

- record_sequence: "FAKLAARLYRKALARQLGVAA [MMI-0300]"
  % activity (%): 81
- record_sequence: "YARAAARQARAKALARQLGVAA [MMI-0100]"
  % activity (%): 146
- record_sequence: "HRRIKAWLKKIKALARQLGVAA (Mammal) [MMI-0500]"
  % activity (%): 56
- record_sequence: "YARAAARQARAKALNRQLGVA (Mammal) [MMI-0200]"
  % activity (%): 131
- record_sequence: "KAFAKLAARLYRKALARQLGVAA [MMI-0400]"
  % activity (%): 70

====

# assay_target: CaMKIIβ(h) (Homo sapiens, UniProt Q13554)
# Sequence (Q13554 whole entry): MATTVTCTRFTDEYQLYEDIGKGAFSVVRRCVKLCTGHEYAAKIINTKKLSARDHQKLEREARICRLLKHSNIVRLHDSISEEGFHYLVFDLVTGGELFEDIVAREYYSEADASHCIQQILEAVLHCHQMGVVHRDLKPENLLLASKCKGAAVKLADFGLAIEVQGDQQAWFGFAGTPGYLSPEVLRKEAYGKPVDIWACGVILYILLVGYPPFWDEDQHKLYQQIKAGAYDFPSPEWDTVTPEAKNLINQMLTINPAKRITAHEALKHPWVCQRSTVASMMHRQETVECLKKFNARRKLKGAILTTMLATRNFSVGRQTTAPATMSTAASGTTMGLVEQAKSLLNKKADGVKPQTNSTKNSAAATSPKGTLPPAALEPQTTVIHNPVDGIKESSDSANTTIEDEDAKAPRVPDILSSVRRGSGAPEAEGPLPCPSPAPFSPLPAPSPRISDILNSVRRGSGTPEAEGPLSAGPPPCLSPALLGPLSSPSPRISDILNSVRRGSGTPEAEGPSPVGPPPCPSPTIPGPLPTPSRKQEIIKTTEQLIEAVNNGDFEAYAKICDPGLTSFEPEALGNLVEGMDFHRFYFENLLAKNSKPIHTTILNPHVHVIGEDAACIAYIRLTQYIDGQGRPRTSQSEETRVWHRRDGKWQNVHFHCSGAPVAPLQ
# test_description: Kinase Profiling Assay
# Assay type: biochemical
# applied_conditions: peptide 100 μM
measure_name: % activity (%)

- record_sequence: "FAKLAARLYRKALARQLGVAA [MMI-0300]"
  measure_name: "% activity"
  measured_value: 2
- record_sequence: "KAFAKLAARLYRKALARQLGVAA [MMI-0400]"
  measure_name: "% activity"
  measured_value: 11
- record_sequence: "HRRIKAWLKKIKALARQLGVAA (Mammal) [MMI-0500]"
  measure_name: "% activity"
  measured_value: 3
- record_sequence: "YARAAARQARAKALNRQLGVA (Mammal) [MMI-0200]"
  measure_name: "% activity"
  measured_value: 53

====

List of % activity values.
# assay_target: CaMKIIδ(h) (Homo sapiens)
# Sequence (Q13557 whole entry): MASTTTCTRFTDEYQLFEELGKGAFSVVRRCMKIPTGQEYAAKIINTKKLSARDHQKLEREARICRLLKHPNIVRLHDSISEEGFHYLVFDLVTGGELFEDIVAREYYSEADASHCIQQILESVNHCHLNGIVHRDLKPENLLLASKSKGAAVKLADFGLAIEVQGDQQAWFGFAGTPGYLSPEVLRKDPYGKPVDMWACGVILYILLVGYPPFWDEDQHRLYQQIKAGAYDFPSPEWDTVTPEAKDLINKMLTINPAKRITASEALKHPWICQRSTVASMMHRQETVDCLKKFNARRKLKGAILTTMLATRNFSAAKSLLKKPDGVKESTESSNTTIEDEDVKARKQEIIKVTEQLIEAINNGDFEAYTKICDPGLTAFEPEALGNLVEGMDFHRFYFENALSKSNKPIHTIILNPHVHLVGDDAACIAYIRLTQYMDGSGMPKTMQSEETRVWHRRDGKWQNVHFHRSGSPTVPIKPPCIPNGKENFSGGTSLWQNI
# test_description: Kinase Profiling Assay
# Assay type: biochemical
# applied_conditions: peptide 100 μM
measure_name: % activity (%)

- record_sequence: "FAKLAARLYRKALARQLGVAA [MMI-0300]"
  unit_annotation: "%"
  measured_value: 1
- record_sequence: "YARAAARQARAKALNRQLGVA (Mammal) [MMI-0200]"
  unit_annotation: "%"
  measured_value: 2
- record_sequence: "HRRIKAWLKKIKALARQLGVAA (Mammal) [MMI-0500]"
  unit_annotation: "%"
  measured_value: 1
- record_sequence: "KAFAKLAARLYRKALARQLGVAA [MMI-0400]"
  unit_annotation: "%"
  measured_value: 2

====

# assay_target: Ax1(h) (Homo sapiens, UniProt P30530)
# test_description: Kinase Profiling Assay
# Format: biochemical
# applied_conditions: peptide 100 μM
No end group written: not given here.
Binary call on % activity with cut-off 40%: strictly below means True, and equality or higher means False.

- record_sequence: "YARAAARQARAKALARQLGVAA [MMI-0100]"
  group_label: "False"
- record_sequence: "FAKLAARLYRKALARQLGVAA [MMI-0300]"
  group_label: "False"
- record_sequence: "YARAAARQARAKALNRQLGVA (Mammal) [MMI-0200]"
  group_label: "False"
- record_sequence: "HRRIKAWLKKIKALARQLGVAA (Mammal) [MMI-0500]"
  group_label: "True"

====

List of % activity values.
# assay_target: CK1δ(h) (Homo sapiens, UniProt P48730)
# Sequence (P48730 whole entry): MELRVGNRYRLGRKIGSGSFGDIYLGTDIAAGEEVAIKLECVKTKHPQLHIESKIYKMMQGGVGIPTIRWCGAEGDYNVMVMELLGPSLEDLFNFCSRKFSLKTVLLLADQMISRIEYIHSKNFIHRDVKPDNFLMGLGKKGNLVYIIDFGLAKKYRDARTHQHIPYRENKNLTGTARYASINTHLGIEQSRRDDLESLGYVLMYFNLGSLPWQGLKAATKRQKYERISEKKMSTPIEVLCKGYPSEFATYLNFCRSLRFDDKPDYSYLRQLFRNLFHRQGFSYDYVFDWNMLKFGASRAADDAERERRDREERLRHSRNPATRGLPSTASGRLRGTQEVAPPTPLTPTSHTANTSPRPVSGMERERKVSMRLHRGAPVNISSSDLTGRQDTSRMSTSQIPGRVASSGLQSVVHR
# test_description: Kinase Profiling Assay
# Format: biochemical
# applied_conditions: peptide 100 μM

- record_sequence: "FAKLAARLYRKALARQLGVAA [MMI-0300]"
  % activity: "92%"
- record_sequence: "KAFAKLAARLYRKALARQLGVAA [MMI-0400]"
  % activity: "93%"
- record_sequence: "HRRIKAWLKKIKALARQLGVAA (Mammal) [MMI-0500]"
  % activity: "78%"
- record_sequence: "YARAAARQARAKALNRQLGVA (Mammal) [MMI-0200]"
  % activity: "92%"

====

List of % activity values.
# assay_target: NEK3(h) (Homo sapiens)
# Construct: purchased Millipore
# Sequence (P51956 1-506): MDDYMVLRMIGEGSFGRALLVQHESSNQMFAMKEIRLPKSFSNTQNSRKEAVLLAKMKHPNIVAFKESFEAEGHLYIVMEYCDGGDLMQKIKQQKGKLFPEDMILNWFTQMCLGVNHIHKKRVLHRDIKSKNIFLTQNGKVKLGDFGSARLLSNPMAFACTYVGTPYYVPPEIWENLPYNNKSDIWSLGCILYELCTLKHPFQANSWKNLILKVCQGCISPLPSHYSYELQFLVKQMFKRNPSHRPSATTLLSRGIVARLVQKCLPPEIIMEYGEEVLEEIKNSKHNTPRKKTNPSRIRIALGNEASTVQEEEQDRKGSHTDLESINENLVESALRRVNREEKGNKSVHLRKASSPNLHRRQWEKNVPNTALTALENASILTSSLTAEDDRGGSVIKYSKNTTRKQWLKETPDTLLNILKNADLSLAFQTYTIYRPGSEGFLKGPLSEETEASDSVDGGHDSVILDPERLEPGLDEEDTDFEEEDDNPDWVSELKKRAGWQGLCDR
# test_description: Kinase Profiling Assay
# Format: biochemical
# applied_conditions: peptide 100 μM
No end group written: not given here.
measure_name: % activity (%)

- record_sequence: "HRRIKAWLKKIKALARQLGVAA (Mammal) [MMI-0500]"
  measure_name: "% activity"
  unit_annotation: "%"
  measured_value: 20
- record_sequence: "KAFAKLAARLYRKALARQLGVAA [MMI-0400]"
  measure_name: "% activity"
  unit_annotation: "%"
  measured_value: 85
- record_sequence: "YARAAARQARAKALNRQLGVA (Mammal) [MMI-0200]"
  measure_name: "% activity"
  unit_annotation: "%"
  measured_value: 100
- record_sequence: "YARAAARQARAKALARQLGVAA [MMI-0100]"
  measure_name: "% activity"
  unit_annotation: "%"
  measured_value: 100
- record_sequence: "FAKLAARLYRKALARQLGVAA [MMI-0300]"
  measure_name: "% activity"
  unit_annotation: "%"
  measured_value: 92

====

# assay_target: Met(D1246N)(h) (Homo sapiens, UniProt P08581, D1228N)
# Construct: purchased Millipore
# test_description: Kinase Profiling Assay
# Type: biochemical
# applied_conditions: peptide 100 μM
List of % activity values.

- record_sequence: "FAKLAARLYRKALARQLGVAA [MMI-0300]"
  assay_target: "Met(D1246N)(h) (Homo sapiens, UniProt P08581, D1228N)"
  % activity: "82%"
- record_sequence: "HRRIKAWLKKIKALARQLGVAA (Mammal) [MMI-0500]"
  assay_target: "Met(D1246N)(h) (Homo sapiens, UniProt P08581, D1228N)"
  % activity: "90%"
- record_sequence: "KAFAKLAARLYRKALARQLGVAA [MMI-0400]"
  assay_target: "Met(D1246N)(h) (Homo sapiens, UniProt P08581, D1228N)"
  % activity: "31%"
- record_sequence: "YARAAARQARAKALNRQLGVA (Mammal) [MMI-0200]"
  assay_target: "Met(D1246N)(h) (Homo sapiens, UniProt P08581, D1228N)"
  % activity: "149%"
